# System: NCI-H1792
# Experiment Description: relative viability (nuclei count vs DMSO), 5 days (fraction); higher = more cells survive
# Condition Notes: first compound 0.02 µM
Below is a list of entries, each paired with its recorded relative viability value.
Please state the value as a number alone, without comment.

CCNC(=O)c1noc(-c2cc(C(C)C)c(O)cc2O)c1-c1ccc(CN2CCOCC2)cc1 [Luminespib] + CC1(C)CCC(c2ccc(Cl)cc2)=C(CN2CCN(c3ccc(C(=O)NS(=O)(=O)c4ccc(N[C@H](CCN5CCOCC5)CSc5ccccc5)c(S(=O)(=O)C(F)(F)F)c4)cc3)CC2)C1 [Navitoclax] (partner 0.5 µM) = 0.539

Ask | Fill in: relative viability of CN1CCN(CCOc2cc(OC3CCOCC3)c3c(Nc4c(Cl)ccc5c4OCO5)ncnc3c2)CC1 [Saracatinib] + CC(C)C[C@H](NC(=O)[C@H](Cc1ccccc1)NC(=O)c1cnccn1)B(O)O [Bortezomib] (partner 0.002 µM) is ___
Reply | 0.956

----------
# Test system: NCI-H2347
# Experiment Description: relative viability (nuclei count vs DMSO), 5 days (fraction); higher = more cells survive
# Condition Notes: first compound 0.2 µM
Reported Metric: relative viability
Could you keep your reply to the number by itself?

# annotated cases, reported relative viability shown
CCNC(=O)c1noc(-c2cc(C(C)C)c(O)cc2O)c1-c1ccc(CN2CCOCC2)cc1 [Luminespib] + Cc1cc(Nc2cc(N3CCN(C)CC3)nc(Sc3ccc(NC(=O)C4CC4)cc3)n2)n[nH]1 [Tozasertib] (partner 0.1 µM) = 0.198
CCNC(=O)c1noc(-c2cc(C(C)C)c(O)cc2O)c1-c1ccc(CN2CCOCC2)cc1 [Luminespib] + N=C(N)NC(=N)NCCc1ccccc1 [Phenformin] (partner 250 µM) = 0.198

Could you now look at the following compound, please?
Ask | // fetch NCI-H2347 relative viability for Cc1csc(=NC2CCCCC2)n1/N=C/c1ccc(O)c(O)c1O [MIM1] + COc1cc2c(Oc3ccc(NC(=O)C4(C(=O)Nc5ccc(F)cc5)CC4)cc3F)ccnc2cc1OCCCN1CCOCC1 [Foretinib] (partner 0.25 µM)
Reply | 0.953

----------
# Test system: IA-LM
# Experiment Description: relative viability (nuclei count vs DMSO), 5 days (fraction); higher = more cells survive
# Condition Notes: first compound 20 µM
Reported Metric: relative viability
When you answer, write just the number.

Cc1csc(=NC2CCCCC2)n1/N=C/c1ccc(O)c(O)c1O [MIM1] + CC1(C)CCC(c2ccc(Cl)cc2)=C(CN2CCN(c3ccc(C(=O)NS(=O)(=O)c4ccc(N[C@H](CCN5CCOCC5)CSc5ccccc5)c(S(=O)(=O)C(F)(F)F)c4)cc3)CC2)C1 [Navitoclax] (partner 0.5 µM) = 0.0808
Cc1csc(=NC2CCCCC2)n1/N=C/c1ccc(O)c(O)c1O [MIM1] + COc1cc2c(Oc3ccc(NC(=O)C4(C(=O)Nc5ccc(F)cc5)CC4)cc3F)ccnc2cc1OCCCN1CCOCC1 [Foretinib] (partner 0.25 µM) = 0.476
Cc1csc(=NC2CCCCC2)n1/N=C/c1ccc(O)c(O)c1O [MIM1] + CS(=O)(=O)CCNCc1ccc(-c2ccc3ncnc(Nc4ccc(OCc5cccc(F)c5)c(Cl)c4)c3c2)o1 [Lapatinib] (partner 2 µM) = 0.151
Cc1csc(=NC2CCCCC2)n1/N=C/c1ccc(O)c(O)c1O [MIM1] + CS(=O)(=O)N1CCN(Cc2cc3nc(-c4cccc5[nH]ncc45)nc(N4CCOCC4)c3s2)CC1 [Pictilisib] (partner 1 µM) = 0.0832

Ask | Quick one: relative viability of Cc1csc(=NC2CCCCC2)n1/N=C/c1ccc(O)c(O)c1O [MIM1] + C[C@]1(O)C[C@@H](c2nc(-c3ccc4ccc(-c5ccccc5)nc4c3)c3c(N)nccn32)C1 [Linsitinib] (partner 1 µM) ?
Reply | 0.105

----------
Measured relative viability of individual entries
# System: NCI-H2228
# Experiment Description: relative viability (nuclei count vs DMSO), 5 days (fraction); higher = more cells survive
# Condition Notes: first compound 20 µM
Format: numeric value only, no unit, no commentary.

The cases that follow already have their relative viability on record.
Cc1csc(=NC2CCCCC2)n1/N=C/c1ccc(O)c(O)c1O [MIM1] + COc1cc2c(Oc3ccc(NC(=O)C4(C(=O)Nc5ccc(F)cc5)CC4)cc3F)ccnc2cc1OCCCN1CCOCC1 [Foretinib] (partner 0.25 µM) = 0.247
Cc1csc(=NC2CCCCC2)n1/N=C/c1ccc(O)c(O)c1O [MIM1] + CC(C)C[C@H](NC(=O)[C@H](Cc1ccccc1)NC(=O)c1cnccn1)B(O)O [Bortezomib] (partner 0.002 µM) = 0.246
Cc1csc(=NC2CCCCC2)n1/N=C/c1ccc(O)c(O)c1O [MIM1] + Cc1nc(NC(=O)N2CCC[C@H]2C(N)=O)sc1-c1ccnc(C(C)(C)C(F)(F)F)c1 [Alpelisib] (partner 2 µM) = 0.197
Cc1csc(=NC2CCCCC2)n1/N=C/c1ccc(O)c(O)c1O [MIM1] + O=C(c1cc(Cc2n[nH]c(=O)c3ccccc23)ccc1F)N1CCN(C(=O)C2CC2)CC1 [Olaparib] (partner 8 µM) = 0.192

Okay, next one:
Ask | For the molecule Cc1csc(=NC2CCCCC2)n1/N=C/c1ccc(O)c(O)c1O [MIM1] + O=C(CCCCCCC(=O)Nc1ccccc1)NO [Vorinostat] (partner 1 µM) , what relative viability is on record?
Reply | 0.206

----------
# Test system: NCI-H2023
# Experiment Description: relative viability (nuclei count vs DMSO), 5 days (fraction); higher = more cells survive
# Condition Notes: first compound 0.03162 µM
Reported Metric: relative viability

Example entries begin here.
Cc1cn(-c2cc(NC(=O)c3ccc(C)c(Nc4nccc(-c5cccnc5)n4)c3)cc(C(F)(F)F)c2)cn1 [Nilotinib] + CC1(C)CCC(c2ccc(Cl)cc2)=C(CN2CCN(c3ccc(C(=O)NS(=O)(=O)c4ccc(N[C@H](CCN5CCOCC5)CSc5ccccc5)c(S(=O)(=O)C(F)(F)F)c4)cc3)CC2)C1 [Navitoclax] (partner 0.5 µM) = 1.02
Cc1cn(-c2cc(NC(=O)c3ccc(C)c(Nc4nccc(-c5cccnc5)n4)c3)cc(C(F)(F)F)c2)cn1 [Nilotinib] + CC(C)C[C@H](NC(=O)[C@H](Cc1ccccc1)NC(=O)c1cnccn1)B(O)O [Bortezomib] (partner 0.002 µM) = 0.925
Cc1cn(-c2cc(NC(=O)c3ccc(C)c(Nc4nccc(-c5cccnc5)n4)c3)cc(C(F)(F)F)c2)cn1 [Nilotinib] + N=C(N)NC(=N)NCCc1ccccc1 [Phenformin] (partner 250 µM) = 0.325
Cc1cn(-c2cc(NC(=O)c3ccc(C)c(Nc4nccc(-c5cccnc5)n4)c3)cc(C(F)(F)F)c2)cn1 [Nilotinib] + CC(=O)Nc1cccc(-n2c(=O)n(C3CC3)c(=O)c3c(Nc4ccc(I)cc4F)n(C)c(=O)c(C)c32)c1 [Trametinib] (partner 0.02 µM) = 0.329
Cc1cn(-c2cc(NC(=O)c3ccc(C)c(Nc4nccc(-c5cccnc5)n4)c3)cc(C(F)(F)F)c2)cn1 [Nilotinib] + O=C(c1cc(Cc2n[nH]c(=O)c3ccccc23)ccc1F)N1CCN(C(=O)C2CC2)CC1 [Olaparib] (partner 8 µM) = 0.361

We next turn to a different molecule, shown below.
Ask | Which relative viability value is on record for Cc1cn(-c2cc(NC(=O)c3ccc(C)c(Nc4nccc(-c5cccnc5)n4)c3)cc(C(F)(F)F)c2)cn1 [Nilotinib] + CS(=O)(=O)N1CCN(Cc2cc3nc(-c4cccc5[nH]ncc45)nc(N4CCOCC4)c3s2)CC1 [Pictilisib] (partner 1 µM) ?
Reply | 0.221

----------
# System: NCI-H2085
# Experiment Description: relative viability (nuclei count vs DMSO), 5 days (fraction); higher = more cells survive
# Condition Notes: first compound 6.325 µM
Reported Metric: relative viability
Answer using only a numeral; do not append any unit.

Consider the worked cases shown below.
Cc1csc(=NC2CCCCC2)n1/N=C/c1ccc(O)c(O)c1O [MIM1] + CC(=O)Nc1cccc(-n2c(=O)n(C3CC3)c(=O)c3c(Nc4ccc(I)cc4F)n(C)c(=O)c(C)c32)c1 [Trametinib] (partner 0.02 µM) = 0.436
Cc1csc(=NC2CCCCC2)n1/N=C/c1ccc(O)c(O)c1O [MIM1] + Cc1nc(Nc2ncc(C(=O)Nc3c(C)cccc3Cl)s2)cc(N2CCN(CCO)CC2)n1 [Dasatinib] (partner 0.075 µM) = 0.241

Ask | Please give the measured relative viability for this compound: Cc1csc(=NC2CCCCC2)n1/N=C/c1ccc(O)c(O)c1O [MIM1] + CC(=O)c1c(C)c2cnc(Nc3ccc(N4CCNCC4)cn3)nc2n(C2CCCC2)c1=O [Palbociclib] (partner 0.5 µM)
Reply | 0.482

Ask | # iterate: Cc1csc(=NC2CCCCC2)n1/N=C/c1ccc(O)c(O)c1O [MIM1] + CS(=O)(=O)N1CCN(Cc2cc3nc(-c4cccc5[nH]ncc45)nc(N4CCOCC4)c3s2)CC1 [Pictilisib] (partner 1 µM)
Reply | 0.461
